Test: Stability in human intestinal S9 fraction (HIS9)
Format: in vitro ADME
Settings: human intestinal S9 0.4 mg protein/mL, 5 μM test compound, 37° C.
MEASUREMENT NAME: CLint Intestinal S9 (µL/min/mg)

{"COMPOUND": "C[C@H](NP(=O)(OC[C@H]1OC[C@@H](n2ccc(N)nc2=O)O1)Oc1cccc2ccccc12)C(=O)OC1CCCC1 (single isomer, unassigned; dia-1) [22 dia-1]", "CLint Intestinal S9 / µL/min/mg": 52}
{"COMPOUND": "CCC(CC)COC(=O)[C@H](C)NP(=O)(OC[C@H]1OC[C@@H](n2ccc(N)nc2=O)O1)Oc1ccccc1 (single isomer, unassigned; dia-1) [15 dia-1]", "CLint Intestinal S9 / µL/min/mg": 87}
{"COMPOUND": "Nc1ccn([C@@H]2CO[C@H](COP(=O)(N[C@@H](Cc3ccccc3)C(=O)OC3CCCCC3)Oc3ccc(Br)cc3)O2)c(=O)n1 (single isomer, unassigned; dia-1) [7 dia-1]", "CLint Intestinal S9 / µL/min/mg": 147}
{"COMPOUND": "C[C@H](NP(=O)(OC[C@H]1OC[C@@H](n2ccc(N)nc2=O)O1)Oc1cccc2ccccc12)C(=O)OC1CCCC1 (single isomer, unassigned; dia-2) [22 dia-2]", "CLint Intestinal S9 / µL/min/mg": 34}
{"COMPOUND": "CC[C@H](C)OC(=O)[C@H](C)NP(=O)(OC[C@H]1OC[C@@H](n2ccc(N)nc2=O)O1)Oc1ccccc1 (single isomer, unassigned) [31 dia-2]", "CLint Intestinal S9 / µL/min/mg": 6}

(A) C[C@H](NP(=O)(OC[C@H]1OC[C@@H](n2ccc(N)nc2=O)O1)Oc1cccc2ccccc12)C(=O)OC1CCCCC1 (single isomer, unassigned; dia-1) [6 dia-1]
(B) CCCC(CCC)COC(=O)[C@H](C)NP(=O)(OC[C@H]1OC[C@@H](n2ccc(N)nc2=O)O1)Oc1cccc2ccccc12 (single isomer, unassigned; dia-2) [14 dia-2]
(C) CCC(CC)OC(=O)[C@H](C)NP(=O)(OC[C@H]1OC[C@@H](n2ccc(N)nc2=O)O1)Oc1ccccc1 (single isomer, unassigned; dia-2) [21 dia-2]
(D) CCC[C@H](C)OC(=O)[C@H](C)NP(=O)(OC[C@H]1OC[C@@H](n2ccc(N)nc2=O)O1)Oc1ccccc1 (single isomer, unassigned; dia-1) [20 dia-1]
Order the records so the highest CLint Intestinal S9 appears first and the lowest last. Give the order by naming the labels one after another as requested.
B, A, D, C
(B: 59 µL/min/mg, A: 36 µL/min/mg, D: 21 µL/min/mg, C: 10 µL/min/mg)

----------
microsomal CLint at 5 μM overview
Assay: Stability in human liver S9 fraction (HLS9)
Format: in vitro ADME
Settings: liver S9 fraction, pH 7.4; human liver S9 0.4 mg protein/mL, 5 μM test compound, 37° C.
Provide only the numeric value, understood in µL/min/mg.

Examples from the recorded data:
{"COMPOUND": "CC(C)OC(=O)[C@H](C)NP(=O)(OC[C@H]1OC[C@@H](n2ccc(N)nc2=O)O1)Oc1ccccc1 (single isomer, unassigned) [Example 2]", "RESULT UNITS": "µL/min/mg", "microsomal CLint at 5 μM": 13}
{"COMPOUND": "CC(C)OC(=O)[C@H](C)NP(=O)(OC[C@H]1OC[C@@H](n2ccc(N)nc2=O)O1)Oc1ccccc1 (single isomer, unassigned) [Example 3]", "RESULT UNITS": "µL/min/mg", "microsomal CLint at 5 μM": 8}

Now for a further compound.
Look at this compound and give its reported microsomal CLint at 5 μM. CC[C@H](C)OC(=O)[C@H](C)NP(=O)(OC[C@H]1OC[C@@H](n2ccc(N)nc2=O)O1)Oc1ccccc1 (single isomer, unassigned)
8
